Target: T1, FZD5 CRD (Homo sapiens, UniProt Q13467)
T1 construct: K29-T156; GPI anchor signal (C); expressed in transfected cells; host or cells: CHO cells, lentiviral pLenti-puro
T1 sequence (Q13467 29-156): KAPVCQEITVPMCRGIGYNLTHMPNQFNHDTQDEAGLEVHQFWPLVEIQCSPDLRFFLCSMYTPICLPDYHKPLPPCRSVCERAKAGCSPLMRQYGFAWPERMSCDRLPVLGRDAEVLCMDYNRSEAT
Assay: Immunofluorescence of anti-FZD5 Fab binding to CHO cells overexpressing Frizzled CRD
Design: key: −: no binding; +: very weak binder; ++: weak binder; +++: good binder; ++++: very good binder
readout-type: Immunofluorescence binding, Frizzled CRD overexpressed on CHO cells: FZD5

molecule	observed-result
Fab-2910: anti-FZD5 Fab with antibody variable region Fv-2910; CDR SEQ ID NOs: 35, 36, 49, 88, 125, 162 (antibody, V domains shown) VH: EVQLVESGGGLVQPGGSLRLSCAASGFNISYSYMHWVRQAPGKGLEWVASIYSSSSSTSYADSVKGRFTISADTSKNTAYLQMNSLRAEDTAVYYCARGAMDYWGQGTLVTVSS VL: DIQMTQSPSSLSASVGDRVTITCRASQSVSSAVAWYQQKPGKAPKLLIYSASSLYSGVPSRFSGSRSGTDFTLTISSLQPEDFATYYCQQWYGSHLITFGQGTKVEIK	++++
Fab-2928: anti-FZD5 Fab with antibody variable region Fv-2928; CDR SEQ ID NOs: 35, 36, 67, 105, 143, 175 (antibody, V domains shown) VH: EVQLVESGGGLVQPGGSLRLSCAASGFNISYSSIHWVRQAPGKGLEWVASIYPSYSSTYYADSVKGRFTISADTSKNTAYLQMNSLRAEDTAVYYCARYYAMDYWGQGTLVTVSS VL: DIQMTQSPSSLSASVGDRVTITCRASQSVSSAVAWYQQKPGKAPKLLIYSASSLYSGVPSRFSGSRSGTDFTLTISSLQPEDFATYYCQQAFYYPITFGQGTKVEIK	++++
